molecular target: α2C-adrenergic receptor (α2C-AR) (Homo sapiens, UniProt P18825); assay: [3H]NE competition radioligand binding on HEK293T membranes
Sequence (P18825 whole entry): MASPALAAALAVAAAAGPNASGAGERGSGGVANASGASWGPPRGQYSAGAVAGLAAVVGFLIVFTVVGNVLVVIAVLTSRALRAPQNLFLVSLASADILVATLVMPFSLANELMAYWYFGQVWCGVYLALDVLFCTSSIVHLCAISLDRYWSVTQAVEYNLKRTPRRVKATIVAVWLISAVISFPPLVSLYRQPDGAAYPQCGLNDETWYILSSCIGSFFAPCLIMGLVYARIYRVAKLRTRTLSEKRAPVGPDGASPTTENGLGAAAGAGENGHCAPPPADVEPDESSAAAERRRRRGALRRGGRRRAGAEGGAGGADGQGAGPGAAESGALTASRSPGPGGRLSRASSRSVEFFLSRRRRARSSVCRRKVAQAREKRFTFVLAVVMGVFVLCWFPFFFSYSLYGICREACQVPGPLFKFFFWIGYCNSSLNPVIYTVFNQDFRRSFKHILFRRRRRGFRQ
pEC50: −log10 of the molar value.

[
  {
    "compound": "NC[C@H](O)c1ccc(O)c(O)c1 [NE, L-(–)-norepinephrine]",
    "pEC50": 8.92
  }
]
